Source of measurements: patent US12209072B2

Biological target: human LPA1 (Homo sapiens)
Construct: expressed in transfected cells; host or cells: Chinese hamster ovary (CHO) cells
Sequence (Q92633 whole entry): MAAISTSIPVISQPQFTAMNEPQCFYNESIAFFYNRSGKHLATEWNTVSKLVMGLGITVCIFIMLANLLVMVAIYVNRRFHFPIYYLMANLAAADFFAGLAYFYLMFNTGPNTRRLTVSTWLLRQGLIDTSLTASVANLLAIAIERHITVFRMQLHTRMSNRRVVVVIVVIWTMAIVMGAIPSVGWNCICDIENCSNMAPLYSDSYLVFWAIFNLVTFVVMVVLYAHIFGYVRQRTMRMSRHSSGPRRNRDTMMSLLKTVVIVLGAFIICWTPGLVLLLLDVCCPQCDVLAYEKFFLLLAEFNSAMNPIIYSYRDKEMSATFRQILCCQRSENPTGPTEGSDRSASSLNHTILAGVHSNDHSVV
Assay: LPA1 functional antagonist assay (LPA-induced calcium flux)
Assay type: cell-based
Settings: CHO cells overexpressing human LPA1; inhibition of calcium flux induced by 10 nM LPA; read-out: hLPA1 IC50
Protocol: The effectiveness of compounds of the present invention as LPA1 inhibitors can be determined in an LPA1 functional antagonist assay as follows: Chinese hamster ovary cells overexpressing human LPA1 were plated overnight (15,000 cells/well) in poly-D-lysine coated 384-well microplates (Greiner bio-one, Cat #781946) in DMEM/F12 medium (Gibco, Cat #11039). […] IC50 values were determined by fitting data to a 4-parameter logistic equation (GraphPad Prism, San Diego CA).
measure-name: IC50 (nM)
Number only, in nM; omit the unit.

Solved entries:
molecule="Cc1nc(-c2nnn(C)c2CNc2nccc(-c3ccccn3)n2)ccc1OC[C@@H]1CC[C@H](C(=O)O)C1 (relative stereo) [Example 36]" target_desc="human LPA1 (Homo sapiens)" reported_result=119
molecule="Cc1noc(-c2ccc(O[C@H]3CC[C@@H](C(=O)O)C3)cc2)c1NC(=O)O[C@H](C)c1ccccc1 (single isomer, unassigned) [Example 1]" target_desc="human LPA1 (Homo sapiens)" reported_result=104
molecule="Cc1nc(-c2nnn(C)c2CNc2nccc(C(C)C)n2)ccc1O[C@@H]1CC[C@@H](CC(=O)O)C1 (relative stereo) [Example 40]" target_desc="human LPA1 (Homo sapiens)" reported_result=92

Please examine the following record next.
-- ask Using the record for CCCC1(COC(=O)NCc2c(-c3ccc(O[C@@H]4CC[C@@H](CC(=O)O)C4)c(C)n3)nnn2C)CC1 (racemic) [Example 9] , report its IC50.
-- reply 111
